# credit: patent US20240209089A1

- TARGET_UNDER_TEST: Fc protein
- PROTOCOL: phage ELISA on coated Fc protein
READOUT_KIND: OD450
Respond numerically, and do not add a unit to the figure.

The following binders have reported results that may help.
phage clone No. 24 (C24) (VHH) VHH: QVQLVESGGGLVQPGGSLRLSCAASGPIFSINTMGWYRQAPGKQRELVATMHSTGSTNYADSVKGRFTISRDNAKKTVYLQMNSLKPDDTAVYYCHVDDTGWGTVDSWGQGIQVTVSS    0.083
phage clone No. 77 (S29) (VHH) VHH: QLQLVESGGGLVQPGGSLRLSCTASGIIFSINTMGWYRQAPGKQRELVADISSFGSTNYADSVKGRFTISRDNAKNSVYLQMNSLKPEDTAVYYCNAHDKGWGTVDSWGQGTQVTVSS    0.08

**Query** State its OD450 for this binder: phage clone No. 71 (S23) (VHH) VHH: QVQLVESGGGLVQPGGSLRLSCAASGSIFSINGMGWYRQAPGKQRELVAAITSGGKTDYLDSVKGRFTISRDSAKNTVALQMNSLKPEDTAVYYCNAYGDVQRGEVRWGQGTQVTVSS
**Result** 0.093

**Query** Retrieve OD450 measured for phage clone No. 30 (C30) (VHH) VHH: QVQLVESGGGLVQPGGSLRLSCVASGSIFAINTMGWYRQAPGKQRELVADMHSTGSTNYADSVKGRFTISRDNAKKKVYLQMNSLKPDDTAVYYCHVDDRGWGTVDSWGQGTQVTVSS and print it.
**Result** 0.103

**Query** Input phage clone No. 70 (S22) (VHH) VHH: QLQLVESGGGLVQPGGSLRLSCAASGSIFSINTMGWYRQAPGKQRELVATMHSTGSTNYADSVKGRFTISRDNAKKTVYLQMNSLKPDDTAVYYCHVDDMGWGTVDSWGQGTQVTVSS , output reported OD450.
**Result** 0.059

**Query** Provide measured OD450 value, entry: phage clone No. 42 (C42) (VHH) VHH: QVQLVESGGGLVQAGGSLRLSCAASGLTFEDYAIGWFRQAPGKEREGISCIRIYDGNTYSAESVKGRFTISSDNAKNQVYLQINTLKPEDTAVYYCAAGSYYSCSVYPDYDMDYWGKGTLVTVSS
**Result** 0.111

**Query** Write down OD450 measured for item phage clone No. 55 (S7) (VHH) VHH: QLQLVESGGGLVQPGGSLRLSCAASGSIFSINGMGWYRQAPGKQREAVAVITSGGKIDYLDSVKGRFTISRDSAKNTVALQMNSLKPEDTAVYYCNAYGDVRRGEVRWGQGTQVTVSS
**Result** 0.059

**Query** Answer with the recorded OD450 for the binder listed here: phage clone No. 29 (C29) (VHH) VHH: QVQLVESGGGLVQAGGSLRLSCVASGFTSDDYVIGWFRQAPGKEREGVSCISSSDGTTNYADSVKGRFTISSDNAKNTVYLQMNSLKPEDTAVYYCAADPMRVCPYSGTYYGILGFGTSGQGTQVTVSS
**Result** 0.115

**Query** // fetch OD450 given entry phage clone No. 27 (C27) (VHH) VHH: QLQLVESGGGLVQPGGSLRLSCVVSGSIFAINTMGWYRQAPGKQRELVATMHSGGSTNYADSVKGRFTISRDAAPKTVYLQMNSLKPADTAVYYCHADDSGWGTVDSWGQGIQVTVSS
**Result** 0.084

**Query** Item phage clone No. 46 (C46) (VHH) VHH: QVQLVESGGGLVQAGGSLRLSCAASGVTFDDLAIGWFRQVPGKGREGVSTIGTSDGTAYYADSVKGRFTISSDNAKNTVYLQMNSLKPEDTAVYYCAVDLDYGLGSLLPMGYDYWGQGTQVTVSS : provide OD450
**Result** 0.081
